TGT: Muscarinic acetylcholine receptor M2 (Homo sapiens)
Sequence (P08172 whole entry): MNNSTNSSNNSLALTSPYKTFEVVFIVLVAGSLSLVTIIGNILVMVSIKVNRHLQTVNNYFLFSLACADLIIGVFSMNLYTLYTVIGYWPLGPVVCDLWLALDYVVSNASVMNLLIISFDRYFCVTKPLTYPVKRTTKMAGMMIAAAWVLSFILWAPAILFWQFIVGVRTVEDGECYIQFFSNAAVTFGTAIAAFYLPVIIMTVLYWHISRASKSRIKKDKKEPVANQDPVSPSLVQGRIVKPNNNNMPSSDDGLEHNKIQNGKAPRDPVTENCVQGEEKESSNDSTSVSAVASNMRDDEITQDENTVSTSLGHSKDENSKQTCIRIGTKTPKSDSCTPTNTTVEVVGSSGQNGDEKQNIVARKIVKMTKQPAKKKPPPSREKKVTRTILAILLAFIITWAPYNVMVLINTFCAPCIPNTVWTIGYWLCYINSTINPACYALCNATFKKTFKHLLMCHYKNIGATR
Type: functional, cell-based

# COMPOUND, TGT, AC50
rows = [
    ("COCC1=C(C(=O)OC(C)OC(=O)OC(C)C)N2C(=O)[C@@H](NC(=O)/C(=N\\OC)c3csc(N)n3)[C@H]2SC1 (stereo partly specified) [CEFPODOXIME PROXETIL]", "Muscarinic acetylcholine receptor M2 (Homo sapiens)", "> 30 µM"),
    ("O=C(CCCCCCC(=O)Nc1ccccc1)NO [VORINOSTAT]", "Muscarinic acetylcholine receptor M2 (Homo sapiens)", "> 30 µM"),
    ("[H]/N=C(/N)c1ccc(NCc2nc3cc(C(=O)N(CCC(=O)O)c4ccccn4)ccc3n2C)cc1 [DABIGATRAN]", "Muscarinic acetylcholine receptor M2 (Homo sapiens)", "> 30 µM"),
    ("CN1C(=O)N(C)C2C1N(C)C(=O)N2C (stereo unspecified) [MEBICAR]", "Muscarinic acetylcholine receptor M2 (Homo sapiens)", "> 30 µM"),
    ("CC(C)NCC(O)COc1ccc(COCCOC(C)C)cc1 (stereo unspecified) [BISOPROLOL]", "Muscarinic acetylcholine receptor M2 (Homo sapiens)", "> 10 µM"),
    ("O=C(CCCCC(=O)Nc1c(I)cc(I)c(C(=O)O)c1I)Nc1c(I)cc(I)c(C(=O)O)c1I [IODIPAMIDE]", "Muscarinic acetylcholine receptor M2 (Homo sapiens)", "> 10 µM"),
    ("CCOC(=O)[C@H](CCc1ccccc1)N[C@@H](C)C(=O)N1CCC[C@H]1C(=O)O", "Muscarinic acetylcholine receptor M2 (Homo sapiens)", "> 10 µM"),
    ("CC(C)(N)Cc1ccc(Cl)cc1 [CHLORPHENTERMINE]", "Muscarinic acetylcholine receptor M2 (Homo sapiens)", "> 10 µM"),
    ("O=C(Nc1ccccc1)OCC(CN1CCCCC1)OC(=O)Nc1ccccc1 (stereo unspecified) [DIPERODON]", "Muscarinic acetylcholine receptor M2 (Homo sapiens)", "> 30 µM"),
    ("Nc1ccc(/N=N/c2ccccc2)c(N)n1 [PHENAZOPYRIDINE]", "Muscarinic acetylcholine receptor M2 (Homo sapiens)", "> 30 µM"),
    ("N[C@@H](C(=O)N[C@@H]1C(=O)N2C(C(=O)O)=C(Cl)CS[C@H]12)c1ccccc1 [CEFACLOR ANHYDROUS]", "Muscarinic acetylcholine receptor M2 (Homo sapiens)", "> 30 µM"),
    ("CC(=O)N(CC(O)CO)c1c(I)c(C(=O)NCC(O)CO)c(I)c(C(=O)NCC(O)CO)c1I (stereo unspecified) [IOHEXOL]", "Muscarinic acetylcholine receptor M2 (Homo sapiens)", "> 10 µM"),
    ("Nc1nc2ccc(OC(F)(F)F)cc2s1 [RILUZOLE]", "Muscarinic acetylcholine receptor M2 (Homo sapiens)", "> 30 µM"),
    ("CC(C(=O)O)c1ccc(C(=O)c2cccs2)cc1 (stereo unspecified) [SUPROFEN]", "Muscarinic acetylcholine receptor M2 (Homo sapiens)", "> 10 µM"),
    ("Cc1cc2c(OCC(CNC(C)(C)C)OC(=O)c3ccccc3)cccc2[nH]1 (stereo unspecified) [BOPINDOLOL]", "Muscarinic acetylcholine receptor M2 (Homo sapiens)", "> 30 µM"),
    ("O=C(O)c1cccc(-c2noc(-c3ccccc3F)n2)c1", "Muscarinic acetylcholine receptor M2 (Homo sapiens)", "> 10 µM"),
]
